# FACS-Seq fitted mean (log10) annotations
B1: library; a variant is named by its letters at N, in order (parent)
chain: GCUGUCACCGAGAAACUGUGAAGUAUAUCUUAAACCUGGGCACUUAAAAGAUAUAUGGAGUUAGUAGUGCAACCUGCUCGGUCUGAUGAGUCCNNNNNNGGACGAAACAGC

Variants of: B1
Experiment: FACS-Seq fitted mean relative fluorescence mCherry/BFP without ligand (log10 relative fluorescence); HEK293T; ligand: cyclic di-GMP (c-di-GMP-II aptamer); higher = higher reporter protein expression
Details: ligand present: no
Please reply with the number alone, leaving off any unit.

See these solved cases before continuing.
{"MUTANT_CODE": "ACAAUA", "FACS-Seq fitted mean (log10)": -0.511}
{"MUTANT_CODE": "AACAAG", "FACS-Seq fitted mean (log10)": -0.43}
{"MUTANT_CODE": "AAACAC", "FACS-Seq fitted mean (log10)": -0.457}
{"MUTANT_CODE": "AAAAGA", "FACS-Seq fitted mean (log10)": -0.494}
{"MUTANT_CODE": "AGAGAA", "FACS-Seq fitted mean (log10)": -0.335}

Turning now to a further variant:
Query :: Which FACS-Seq fitted mean (log10) value is on record for GAGACU ?
Result :: -0.22
